A collection of molecules and their measured IC50
Test system: A549
Assay: Cytotoxicity against human A549 cells by MTT assay
Type: functional, cell-based

Study these solved cases before continuing.
| molecule | IC50 |
| --- | --- |
| C/C=C(\C)C(=O)N[C@@H](c1ccccc1)[C@@H](O)C(=O)O[C@H]1C[C@@]2(O)[C@@H](OC(=O)c3ccccc3)[C@@H]3[C@]4(OC(C)=O)CO[C@@H]4C[C@H](O)[C@@]3(C)C(=O)[C@H](O)C(=C1C)C2(C)C | > 10 µM |
| C/C=C(/C)C(=O)N[C@@H](c1ccccc1)[C@@H](O)C(=O)O[C@H]1C[C@@]2(O)[C@@H](OC(=O)c3ccccc3)[C@@H]3[C@]4(OC(C)=O)CO[C@@H]4C[C@@H](O)[C@@]3(C)C(=O)[C@H](OC(C)=O)C(=C1C)C2(C)C | 0.09 µM |
| C/C=C(/C)C(=O)N[C@@H](c1ccccc1)[C@@H](O)C(=O)O[C@H]1C[C@@]2(O)[C@@H](OC(=O)c3ccccc3)[C@@H]3[C@]4(OC(C)=O)CO[C@@H]4C[C@@H](O)[C@@]3(C)C(=O)[C@H](O)C(=C1C)C2(C)C | 3.24 µM |
| CC(=O)O[C@H]1C(=O)[C@]2(C)[C@@H](O[C@H]3OC[C@@H](O)[C@H](O)[C@H]3O)C[C@H]3OC[C@@]3(OC(C)=O)[C@H]2[C@H](OC(=O)c2ccccc2)[C@]2(O)C[C@H](O)C(C)=C1C2(C)C | > 10 µM |
| CCC(C)C(=O)N[C@@H](c1ccccc1)[C@@H](O)C(=O)O[C@H]1C[C@@]2(O)[C@@H](OC(=O)c3ccccc3)[C@@H]3[C@]4(OC(C)=O)CO[C@@H]4C[C@@H](O)[C@@]3(C)C(=O)[C@H](OC(C)=O)C(=C1C)C2(C)C (stereo partly drawn) | 2.24 µM |

Reported A549 IC50 for item CC(=O)O[C@H]1C(=O)[C@@]2(C)[C@H]([C@H](OC(=O)c3ccccc3)[C@]3(O)C[C@H](OC(=O)[C@H](O)[C@@H](NC(=O)c4ccccc4)c4ccccc4)C(C)=C1C3(C)C)[C@]1(OC(C)=O)CO[C@@H]1C[C@@H]2O was 0.019 µM

Reported A549 IC50 for item CC(=O)O[C@@]12CO[C@@H]1C[C@@H](O)[C@@]1(C)C(=O)C(=O)C3=C(C)[C@@H](O)C[C@@](O)([C@@H](OC(=O)c4ccccc4)[C@H]21)C3(C)C was > 10 µM

Reported A549 IC50 for item C/C=C(\C)C(=O)N[C@@H](c1ccccc1)[C@@H](O)C(=O)O[C@H]1C[C@@]2(O)[C@@H](OC(=O)c3ccccc3)[C@@H]3[C@]4(OC(C)=O)CO[C@@H]4C[C@H](O)[C@@]3(C)C(=O)[C@H](OC(C)=O)C(=C1C)C2(C)C was 0.1 µM
